Below is a list of entries, each paired with its recorded IC50 value.
assayed system: UniProt:Q13936
Sequence (Q13936 whole entry): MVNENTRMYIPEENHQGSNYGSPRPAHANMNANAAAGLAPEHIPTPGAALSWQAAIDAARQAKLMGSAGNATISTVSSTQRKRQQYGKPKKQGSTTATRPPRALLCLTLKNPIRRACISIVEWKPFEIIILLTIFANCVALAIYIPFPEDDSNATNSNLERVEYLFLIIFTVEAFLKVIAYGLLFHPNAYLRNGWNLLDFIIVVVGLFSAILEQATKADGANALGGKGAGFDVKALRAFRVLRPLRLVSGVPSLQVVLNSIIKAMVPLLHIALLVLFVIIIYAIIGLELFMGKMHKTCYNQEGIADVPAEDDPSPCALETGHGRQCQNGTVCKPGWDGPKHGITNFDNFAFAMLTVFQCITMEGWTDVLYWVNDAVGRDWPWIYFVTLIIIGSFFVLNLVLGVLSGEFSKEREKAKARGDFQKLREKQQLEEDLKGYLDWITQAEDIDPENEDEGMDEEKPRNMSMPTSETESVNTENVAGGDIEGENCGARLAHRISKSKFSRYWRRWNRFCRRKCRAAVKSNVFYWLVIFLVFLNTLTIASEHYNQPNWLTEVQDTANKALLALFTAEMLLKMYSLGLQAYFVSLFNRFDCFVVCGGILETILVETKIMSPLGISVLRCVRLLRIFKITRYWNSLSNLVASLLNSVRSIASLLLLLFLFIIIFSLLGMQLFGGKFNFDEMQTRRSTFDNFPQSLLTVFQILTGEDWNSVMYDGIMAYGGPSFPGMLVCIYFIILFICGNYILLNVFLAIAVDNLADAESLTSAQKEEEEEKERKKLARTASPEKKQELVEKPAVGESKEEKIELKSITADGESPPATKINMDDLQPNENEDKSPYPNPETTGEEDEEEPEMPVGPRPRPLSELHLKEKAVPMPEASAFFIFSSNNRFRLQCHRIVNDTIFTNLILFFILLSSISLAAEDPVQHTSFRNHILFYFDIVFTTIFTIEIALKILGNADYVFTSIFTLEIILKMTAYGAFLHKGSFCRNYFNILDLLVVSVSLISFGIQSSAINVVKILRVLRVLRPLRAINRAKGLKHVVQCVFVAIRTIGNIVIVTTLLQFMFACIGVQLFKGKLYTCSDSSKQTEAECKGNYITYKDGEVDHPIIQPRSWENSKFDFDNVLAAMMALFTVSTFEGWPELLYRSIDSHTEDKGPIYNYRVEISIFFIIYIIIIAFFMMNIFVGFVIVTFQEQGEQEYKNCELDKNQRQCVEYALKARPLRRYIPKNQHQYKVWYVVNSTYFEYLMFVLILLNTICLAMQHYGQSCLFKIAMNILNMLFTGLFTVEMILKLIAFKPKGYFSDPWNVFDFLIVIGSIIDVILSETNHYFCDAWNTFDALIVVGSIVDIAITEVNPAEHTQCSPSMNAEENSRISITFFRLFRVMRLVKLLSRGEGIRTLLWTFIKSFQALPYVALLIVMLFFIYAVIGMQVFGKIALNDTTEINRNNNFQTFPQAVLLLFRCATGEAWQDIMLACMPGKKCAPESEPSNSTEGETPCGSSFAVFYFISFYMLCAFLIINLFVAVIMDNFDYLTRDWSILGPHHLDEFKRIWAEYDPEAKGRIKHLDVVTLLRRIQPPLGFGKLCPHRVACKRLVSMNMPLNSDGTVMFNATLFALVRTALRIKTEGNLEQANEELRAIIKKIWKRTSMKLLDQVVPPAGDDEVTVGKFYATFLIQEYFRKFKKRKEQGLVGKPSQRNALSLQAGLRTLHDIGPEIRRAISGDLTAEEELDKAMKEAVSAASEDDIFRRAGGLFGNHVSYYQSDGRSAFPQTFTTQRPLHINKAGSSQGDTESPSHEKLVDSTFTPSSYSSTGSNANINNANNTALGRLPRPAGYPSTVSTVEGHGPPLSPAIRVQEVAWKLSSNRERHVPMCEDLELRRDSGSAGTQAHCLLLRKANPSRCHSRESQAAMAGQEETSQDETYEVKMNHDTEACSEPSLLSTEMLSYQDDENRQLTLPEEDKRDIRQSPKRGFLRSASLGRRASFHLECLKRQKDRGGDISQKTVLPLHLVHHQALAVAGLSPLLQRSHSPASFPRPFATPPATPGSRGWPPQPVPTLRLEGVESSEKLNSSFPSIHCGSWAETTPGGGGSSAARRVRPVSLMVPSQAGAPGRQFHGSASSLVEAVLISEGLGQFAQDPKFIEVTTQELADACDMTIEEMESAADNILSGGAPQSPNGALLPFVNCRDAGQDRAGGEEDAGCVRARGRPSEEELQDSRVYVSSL
Sequence (P54289 25-1103 partner): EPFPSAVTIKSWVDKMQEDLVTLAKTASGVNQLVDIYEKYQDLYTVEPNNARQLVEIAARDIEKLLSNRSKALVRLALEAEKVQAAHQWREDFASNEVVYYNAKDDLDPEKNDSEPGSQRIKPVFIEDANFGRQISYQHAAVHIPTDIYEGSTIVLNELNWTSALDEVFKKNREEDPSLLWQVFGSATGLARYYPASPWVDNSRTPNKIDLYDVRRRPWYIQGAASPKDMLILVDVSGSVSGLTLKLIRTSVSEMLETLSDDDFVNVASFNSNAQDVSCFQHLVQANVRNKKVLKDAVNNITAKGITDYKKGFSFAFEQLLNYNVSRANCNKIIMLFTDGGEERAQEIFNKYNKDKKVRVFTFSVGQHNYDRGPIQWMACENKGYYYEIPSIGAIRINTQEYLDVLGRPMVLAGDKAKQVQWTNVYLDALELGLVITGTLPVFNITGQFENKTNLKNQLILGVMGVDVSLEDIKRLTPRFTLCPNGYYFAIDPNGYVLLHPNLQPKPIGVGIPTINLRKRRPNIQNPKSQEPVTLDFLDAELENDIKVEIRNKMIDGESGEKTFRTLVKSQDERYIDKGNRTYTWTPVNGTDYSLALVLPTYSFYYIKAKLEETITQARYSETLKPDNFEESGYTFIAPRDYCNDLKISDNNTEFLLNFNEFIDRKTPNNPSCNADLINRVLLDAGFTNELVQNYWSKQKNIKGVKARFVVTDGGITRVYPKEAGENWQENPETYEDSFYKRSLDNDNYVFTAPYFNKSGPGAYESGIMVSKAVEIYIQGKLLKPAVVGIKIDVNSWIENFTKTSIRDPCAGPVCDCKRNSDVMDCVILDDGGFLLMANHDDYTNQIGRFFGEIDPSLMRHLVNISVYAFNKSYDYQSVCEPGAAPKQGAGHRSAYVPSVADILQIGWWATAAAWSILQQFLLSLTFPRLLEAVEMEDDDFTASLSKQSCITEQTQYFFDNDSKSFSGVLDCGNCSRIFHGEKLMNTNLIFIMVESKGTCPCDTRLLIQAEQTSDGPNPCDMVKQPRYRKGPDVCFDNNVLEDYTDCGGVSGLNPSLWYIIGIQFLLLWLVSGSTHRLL
Sequence (Q08289 whole entry partner): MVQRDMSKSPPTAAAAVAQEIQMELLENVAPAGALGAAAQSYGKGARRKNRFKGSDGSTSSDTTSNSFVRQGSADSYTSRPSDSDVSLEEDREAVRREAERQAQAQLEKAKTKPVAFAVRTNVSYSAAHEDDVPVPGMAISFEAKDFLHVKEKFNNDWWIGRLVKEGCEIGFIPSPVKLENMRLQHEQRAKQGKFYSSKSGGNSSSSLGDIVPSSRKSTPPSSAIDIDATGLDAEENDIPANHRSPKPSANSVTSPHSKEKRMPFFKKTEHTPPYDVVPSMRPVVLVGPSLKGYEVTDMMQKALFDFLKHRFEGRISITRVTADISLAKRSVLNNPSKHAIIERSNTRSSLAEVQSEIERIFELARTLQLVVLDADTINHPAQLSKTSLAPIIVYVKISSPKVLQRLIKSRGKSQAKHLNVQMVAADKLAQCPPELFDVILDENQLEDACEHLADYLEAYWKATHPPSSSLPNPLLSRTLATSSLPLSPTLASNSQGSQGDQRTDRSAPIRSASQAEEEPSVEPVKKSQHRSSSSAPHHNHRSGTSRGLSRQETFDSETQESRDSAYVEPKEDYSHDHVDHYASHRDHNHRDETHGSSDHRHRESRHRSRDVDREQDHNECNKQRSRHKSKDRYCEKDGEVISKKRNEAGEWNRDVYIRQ
experimental details: FLIPR data, CAv1.2 channel blocking (Table 6)
Type: cell-based
settings: inactivated state, read-out: CAv1.2 IC50 Inact.
Report the value in nM with no unit label.

Take a look at these entries with their results.
Q: Which IC50 value belongs to CC(C)([C@H]1C[C@H](NS(=O)(=O)c2ccc(F)c(Cl)c2)C1)S(=O)(=O)c1cccc(C(F)(F)F)c1 [Compound 664] ?
Ans: 3670

Q: // query: CC(C)(C[C@H]1C[C@@H](NC(=O)c2ccc(OCC(F)(F)F)nc2)C1)S(=O)(=O)c1cccc(C(F)(F)F)c1 [Compound 737]
Ans: 1280

Q: Try this compound next: CC(C)([C@H]1C[C@H](NS(=O)(=O)c2ccc(C(F)(F)F)nc2)C1)S(=O)(=O)c1cccc(C(F)(F)F)c1 [Compound 668]
Ans: 3730

Others:
Q: Which IC50 is reported for this compound? CC(C)([C@H]1C[C@@H](CNc2ccnc(C(F)(F)F)n2)C1)S(=O)(=O)c1cccc(C(F)(F)F)c1 [Compound 691]
Ans: 2220

Q: Could you do the same for CC(C)(C[C@H]1C[C@H](NC(=O)c2ccc(C(F)(F)F)cn2)C1)S(=O)(=O)c1cccc(C(F)(F)F)c1 [Compound 722] , please?
Ans: 2560

Q: Repeat for the following compound: CNC1(CC(=O)NCc2ccc(S(=O)(=O)c3cccc(C(F)(F)F)c3)cc2)CCCCC1 [Compound 660]
Ans: 4930

Q: Now the same for CC(C)([C@H]1C[C@@H](NS(=O)(=O)c2ccc(F)c(C(F)(F)F)c2)C1)S(=O)(=O)c1cc(F)cc(C(F)(F)F)c1 [Compound 601]
Ans: 2860
